Numbers sourced from BindingDB's records for doi:10.1021/acs.jmedchem.9b00781.

testDetails: Inhibition of RNA-dependent RNA polymerase in ZIKV SL0612 infected in African green monkey Vero cells assessed as reduction in virus-induced cytopathic effect measured after 96 hrs post-infection by MTS assay
For each of the compounds below, state its EC50.

What EC50 value was documented for this compound, "CNc1ncnc2c1ncn2[C@H]1[C@H](O)[C@H](O)[C@@H](CO)[C@H]1F" ?
> 100 µM

Now consider "Nc1ncnc2c1ncn2[C@@H]1C[C@H](CO)[C@@H](O)[C@H]1O" .
0.64 µM

Now consider "CC(C)OC(=O)[C@H](C)N[P@](=O)(OC[C@@H]1[C@@H](O)[C@@H](O)[C@H](n2ccc(=O)[nH]c2=O)C1(F)F)Oc1ccccc1" .
> 100 µM

Now consider "CNc1ncnc2c1ncn2[C@H]1[C@H](O)[C@H](O)[C@@H](CO)C1(F)F" .
> 100 µM
